# assay-target: 14-3-3 protein sigma (Homo sapiens, UniProt P31947)
# Sequence (P31947 whole entry): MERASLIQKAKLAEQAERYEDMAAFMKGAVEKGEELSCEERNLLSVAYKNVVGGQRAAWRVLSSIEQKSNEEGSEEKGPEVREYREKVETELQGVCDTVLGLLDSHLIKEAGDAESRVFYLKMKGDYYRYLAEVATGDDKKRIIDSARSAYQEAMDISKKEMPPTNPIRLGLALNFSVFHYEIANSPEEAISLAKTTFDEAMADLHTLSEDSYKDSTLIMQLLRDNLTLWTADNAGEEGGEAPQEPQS
# assay-comment: Binding affinity to histidine-tagged human recombinant 14-3-3sigma by transferred NOESY analysis
parameter: Kd

Entry under review: `CCCCCCOC(=O)c1ccc(Nc2c([N+](=O)[O-])cc(C(=O)O)cc2[N+](=O)[O-])cc1` . Reported Kd? > 1000 nM
